biological target: human M4 receptor (Homo sapiens (Human)); assay: Radioligand (tritiated N-methylscopolamine) binding assay, M4; details: Ki against the M4 receptor; membranes from CHO cells expressing human M4; tritiated N-methylscopolamine 1.5 nM; read-out: Ki
Sequence (P08173 whole entry): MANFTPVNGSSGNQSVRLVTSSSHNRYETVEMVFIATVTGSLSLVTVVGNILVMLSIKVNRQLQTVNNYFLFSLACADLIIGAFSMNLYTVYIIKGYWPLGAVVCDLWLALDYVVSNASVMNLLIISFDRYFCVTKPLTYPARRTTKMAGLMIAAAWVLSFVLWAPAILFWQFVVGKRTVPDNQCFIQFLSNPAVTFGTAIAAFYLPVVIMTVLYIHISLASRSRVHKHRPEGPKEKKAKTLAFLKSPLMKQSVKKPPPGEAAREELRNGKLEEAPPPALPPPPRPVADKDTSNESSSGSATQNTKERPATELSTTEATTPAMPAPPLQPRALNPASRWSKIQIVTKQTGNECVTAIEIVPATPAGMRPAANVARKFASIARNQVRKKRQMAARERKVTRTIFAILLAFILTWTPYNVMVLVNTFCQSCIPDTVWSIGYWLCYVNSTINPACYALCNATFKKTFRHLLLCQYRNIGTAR
pKi: −log10 of the molar value.
Listing of entries alongside the reported pKi.

Here's what some known entries look like.
{"Compound": "O=C(NCCC1(CO)CCN(Cc2ccccc2)CC1)C1CCN(c2ccc(OC(F)(F)F)c(F)c2)CC1", "Target Or System": "human M4 receptor (Homo sapiens (Human))", "Parameter": "pKi", "Observed Result": "> 8.00"}
{"Compound": "O=C(NCCC1CCN(Cc2ccccc2)CC1)C1CCN(c2cc(C(F)(F)F)ccn2)CC1", "Target Or System": "human M4 receptor (Homo sapiens (Human))", "Parameter": "pKi", "Observed Result": "7.00 to 8.00"}
{"Compound": "O=C(NCCC1CCN(Cc2ccccc2)CC1)C1(O)CCN(c2cccc(OC(F)(F)F)c2)CC1", "Target Or System": "human M4 receptor (Homo sapiens (Human))", "Parameter": "pKi", "Observed Result": "6.00 to 7.00"}
{"Compound": "C[C@@H]1CN(c2cnc(C(F)(F)F)cn2)CCN1C(=O)NCCC1CCN(Cc2ccccc2)CC1", "Target Or System": "human M4 receptor (Homo sapiens (Human))", "Parameter": "pKi", "Observed Result": "> 8.00"}

--- query ---
query: Let me know recorded pKi for `COc1ccc(N2CCC(C(=O)NCCC3CCN(Cc4ccccc4)CC3)CC2)cc1` , thanks.
result: 6.00 to 7.00

Measured values drawn from patent US11033539B2 for this set.
